Hey, just so you know, these numbers are from PubChem BioAssay AID1159580.

Record form. Attribute: normalized growth. Fill in for each entry.
experiment: chemical genetic growth profiling, strain panel (AID 1159580);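 also: tested at 20 µM; growth read once vehicle control cultures reached saturation at 30 °C; 1 = growth at the plate median or of vehicle wells; lower values mean less growth of the strain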; conditions: S. cerevisiae deletion strains, growth OD, locus YML016C, strain PPZ1, stronger effect = lower value
In all, about 5,500 compounds went through this assay and about 2,000 (36%) were called active. About 18% were inconclusive and are not listed. Some of the results follow.
Field format: numeric only.

Ask | Which value of normalized growth has been reported for CCC(C(N)=O)c1ccccc1 (centres undefined) in the records?
Reply | 1.01

Ask | And then O=C(O)c1ccccc1OP(=O)(O)O , what is it?
Reply | 1.01

Ask | And CC(C(=O)O)c1ccc2c(c1)[nH]c1ccc(Cl)cc12 (centres undefined) ?
Reply | 1.01

Ask | How about O=C(O)c1cc(=O)c2cc(Cl)ccc2[nH]1 ?
Reply | 1

Ask | Now the molecule COC(=O)[C@H]1[C@H]2C[C@H]3c4[nH]c5ccccc5c4CCN3C[C@H]2CC[C@@H]1O
Reply | 1.01

Ask | Another: OCCN(CCO)c1nc(N2CCCCC2)c2nc(N(CCO)CCO)nc(N3CCCCC3)c2n1
Reply | 1.01

Ask | Another: N=c1nc(N2CCCCC2)cc(N)n1O
Reply | 0.973

Ask | And what about the molecule NC(=O)N1c2ccccc2CC(=O)c2ccccc21 ?
Reply | 0.985

Ask | Now consider N#Cc1c(Cl)c(Cl)c(Cl)c(C#N)c1Cl and answer again.
Reply | 0.998

====

experiment: chemical genetic growth profiling, strain panel (AID 1159580);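 also: tested at 20 µM; growth read once vehicle control cultures reached saturation at 30 °C; 1 = growth at the plate median or of vehicle wells; lower values mean less growth of the strain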; settings: S. cerevisiae deletion strains, growth OD, locus YJL154C, strain vps35
Out of some 5,500 compounds screened, about 2,000 (36%) were called active. Roughly 18% stayed inconclusive and do not appear here. Rule as the data show it: active = normalized growth mostly below about 0.91 (no sharp cut-off); inconclusive = no clear call, values can overlap the other calls; inactive = mostly above about 0.92. The list shows a part of the results.
Choose one outcome from this list and give only that: active, inactive

Ask | Given CC[C@H]1OC(=O)C[C@@H](O)[C@H](C)[C@@H](O[C@@H]2O[C@H](C)[C@@H](O[C@H]3C[C@@](C)(O)[C@@H](O)[C@H](C)O3)[C@H](N(C)C)[C@H]2O)[C@@H](CC=O)C[C@@H](C)C(=O)/C=C/C(C)=C/[C@@H]1CO[C@@H]1O[C@H](C)[C@@H](O)[C@@H](OC)[C@H]1OC , state the outcome it received in this test.
Reply | inactive

Ask | // next record COc1ccc2c(c1)C1(C)CCC(=O)CC1CC2 (centres undefined)
Reply | inactive

Ask | Query NC[C@@H]1O[C@H](O[C@@H]2[C@@H](CO)OC(O[C@@H]3[C@@H](O)[C@H](N)C[C@H](N)[C@H]3OC3O[C@H](CN)[C@@H](O)[C@H](O)[C@H]3N)[C@@H]2O)[C@H](N)[C@@H](O)[C@@H]1O (some centres undefined) next
Reply | inactive

Ask | Queued: CC1(C)S[C@@H]2[C@H](NC(=O)[C@H](NC(=O)N3CCNC3=O)c3ccccc3)C(=O)N2C1C(=O)O (some centres undefined)
Reply | inactive

Ask | Can you handle C[N+](C)(C)CC(=O)[O-] next?
Reply | inactive

Ask | How about COc1ccc2cc1Oc1ccc(cc1)C[C@H]1c3c(cc4c(c3Oc3cc5c(cc3OC)CCN(C)[C@@H]5C2)OCO4)CCN1C ?
Reply | inactive

Ask | Now the same for Cc1cccc(Nc2cc(Cl)nc(SCC(=O)O)n2)c1C
Reply | inactive

Ask | // query: COc1ccc2cc1Oc1ccc(cc1)C[C@H]1c3cc(c(OC)cc3CCN1C)Oc1c(OC)c(OC)cc3c1[C@H](C2)N(C)CC3
Reply | inactive

Ask | How about this compound: CCC(C(=O)O)c1ccccc1 (centres undefined)
Reply | inactive

Ask | Here is the next compound: CNC1(C)C2CCC(C2)C1(C)C (centres undefined)
Reply | inactive

Ask | For O=C(O)c1cc(=O)c2ccc(Cl)cc2[nH]1 then?
Reply | inactive

Ask | Try this compound too: O=C(O)COc1cc(Cl)c(Cl)cc1Cl
Reply | inactive

Ask | Check COC(=O)C1=COC(OC2OC(CO)C(O)C(O)C2O)C2C(C)CC(=O)C12O (centres undefined) too.
Reply | inactive

Ask | Query O=C(/C=C/C=C/c1ccc2c(c1)OCO2)N1CCCCC1 next
Reply | inactive

Ask | Try this compound too: CC(C)N(C(=O)CCl)c1ccccc1
Reply | inactive

Ask | Next compound up: COC(=O)COc1cc(Cl)c(Cl)cc1Cl
Reply | inactive

Ask | Moving on to the next compound: COc1ccc2c(c1)[C@@]1(C)CCC(=O)C[C@H]1CC2
Reply | inactive

Ask | What about this compound? CC(C)[N+](C)(CCOC(=O)C1c2ccccc2Oc2ccccc21)C(C)C
Reply | inactive

Ask | Okay, and CCN(CC)C(=S)SSC(=S)N(CC)CC ?
Reply | active
